target: recombinant human MASP2 active protease (amino acids 297-686, C-terminal His Tag) (human, UniProt O00187 297-686); test: cell-based or functional assay
Sequence (O00187 other isoform, or with tags, fused parts or gaps limits assumed): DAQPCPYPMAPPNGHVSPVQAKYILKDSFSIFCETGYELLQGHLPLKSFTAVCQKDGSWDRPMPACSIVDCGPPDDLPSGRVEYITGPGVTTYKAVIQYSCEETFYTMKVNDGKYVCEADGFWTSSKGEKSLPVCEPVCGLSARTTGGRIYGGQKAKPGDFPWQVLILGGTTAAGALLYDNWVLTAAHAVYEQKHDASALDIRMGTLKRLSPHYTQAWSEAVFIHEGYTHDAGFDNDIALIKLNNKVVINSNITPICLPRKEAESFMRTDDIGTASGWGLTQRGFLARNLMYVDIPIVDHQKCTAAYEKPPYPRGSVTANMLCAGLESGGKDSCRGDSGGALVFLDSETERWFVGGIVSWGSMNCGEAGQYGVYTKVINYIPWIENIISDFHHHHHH
Bridge positions count the residues as written; N and C are the ends. Square brackets hold non-standard residues; d marks the D form. Primed or numbered codes have the meaning given here. Ends that are not written are not given here. * marks the point of attachment. Tranexamic″ = tranexamic acid, NC[C@H]1CC[C@@H](C(=O)*)CC1; Pro(trans-4-F) = O=C(O)[C@@H]1C[C@@H](F)CN1; tBuAla = CC(C)(C)C[C@H](N)C(=O)O; Pen = CC(C)(S)[C@H](N)C(=O)O; PEG3 = NCCOCCOCCOCCC(=O)O; Sar = CNCC(=O)O
Reported Endpoint: human MASP2 IC50 (nM)
Numbers only, in nM.

Binder	human MASP2 IC50, nM
[Sar]ICSRSL[Pro(trans-4-F)]PICIPD-OH (disulfide 3-11; N-terminus assumed; SMILES CC[C@H](C)[C@H](NC(=O)CNC)C(=O)N[C@H]1CSSC[C@@H](C(=O)N[C@H](C(=O)N2CCC[C@H]2C(=O)N[C@@H](CC(=O)O)C(=O)O)[C@@H](C)CC)NC(=O)[C@H]([C@@H](C)CC)NC(=O)[C@@H]2CCCN2C(=O)[C@@H]2C[C@@H](F)CN2C(=O)[C@H](CC(C)C)NC(=O)[C@H](CO)NC(=O)[C@H](CCCNC(=N)N)NC(=O)[C@H](CO)NC1=O) [Example 354: ((N-Me)G)-IC+SRSL-((trans-4-Fluoro)P)-PIC+IPD-OH]	510

Next binder, please.
Quick one: give measured human MASP2 IC50 for {Tranexamic″}-ICSRS[tBuAla]PPI[Pen]IP-{PEG3-NH2} (disulfide 2-10; SMILES CC[C@H](C)[C@@H]1NC(=O)[C@@H]2CCCN2C(=O)[C@@H]2CCCN2C(=O)[C@H](CC(C)(C)C)NC(=O)[C@H](CO)NC(=O)[C@H](CCCNC(=N)N)NC(=O)[C@H](CO)NC(=O)[C@@H](NC(=O)[C@@H](NC(=O)[C@H]2CC[C@@H](CN)CC2)[C@@H](C)CC)CSSC(C)(C)[C@@H](C(=O)N[C@H](C(=O)N2CCC[C@H]2C(=O)NCCOCCOCCOCCC(N)=O)[C@@H](C)CC)NC1=O) [Example 421: (Tranexamic)-IC+SRS-((tBu)A)-PPI-(Pen)+IP-(PEG2(13 atoms))-NH2]
9.8

Ref: patent US20210246166A1
